# tested system: UniProtKB Q16850
# Sequence (Q16850 whole entry): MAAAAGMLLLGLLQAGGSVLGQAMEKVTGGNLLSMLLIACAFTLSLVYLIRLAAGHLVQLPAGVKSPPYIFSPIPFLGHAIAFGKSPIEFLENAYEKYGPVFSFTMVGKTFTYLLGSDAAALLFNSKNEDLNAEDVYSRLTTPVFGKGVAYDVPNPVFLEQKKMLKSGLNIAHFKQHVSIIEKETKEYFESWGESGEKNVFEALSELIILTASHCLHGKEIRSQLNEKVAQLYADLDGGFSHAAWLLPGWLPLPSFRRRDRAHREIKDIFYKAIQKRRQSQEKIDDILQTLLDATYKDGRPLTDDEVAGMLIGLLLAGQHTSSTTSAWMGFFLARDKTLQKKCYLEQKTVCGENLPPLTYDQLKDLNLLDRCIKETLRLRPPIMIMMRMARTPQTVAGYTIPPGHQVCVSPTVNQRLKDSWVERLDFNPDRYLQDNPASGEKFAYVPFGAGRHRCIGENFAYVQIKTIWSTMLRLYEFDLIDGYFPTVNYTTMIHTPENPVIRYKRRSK
# experiment notes: Inhibition of recombinant full length human CYP51 expressed in Escherichia coli at inhibitor/enzyme ratio 25/1 incubated for 1 hr using [3H] lanosterol as substrate by HPLC analysis relative to control
# test parameters: probe [3H] lanosterol
Exercise: state measured inhibition at 1 h for each of the compounds provided.
Answers are plain numbers, in %.

1) CS(=O)(=O)c1cc(-c2ccccn2)cc(-c2nnc(-c3ccc(C(=O)N[C@@H](Cn4ccnc4)c4ccc(-c5ccc(F)cc5)cc4Cl)cc3)o2)c1 ... 82

# return inhibition at 1 h for each item in the list
1. O=C(N[C@@H](Cn1ccnc1)c1ccc(-c2ccc(F)cc2)cc1Cl)c1ccc(-c2nnc(-c3ccccc3)o2)cc1
2. O=C(N[C@@H](Cn1ccnc1)c1ccc(-c2ccc(F)cc2)cc1Cl)c1ccc(-c2nnc(-c3cc(F)cc(-c4ncncc4F)c3)o2)cc1

Result string:
1: 73; 2: 98

###

# Test system: MCF7
# experiment notes: Antiproliferative activity against human MCF7 cells assessed as reduction in cell viability incubated for 24 hrs by BrdU based ELISA
# Format: functional
# test parameters: MCF7, 24 h
property: EC50

The compound O=C(N[C@@H](Cn1ccnc1)c1ccc(-c2ccc(F)cc2)cc1F)c1ccc(-c2nnc(-c3ccccc3)o2)cc1 showed EC50 equal to 10 to 30 µM

###

Exercise: state measured IC50 for each of the compounds provided.
# tested system: Lanosterol 14-alpha demethylase (Homo sapiens, UniProt Q16850)
# experiment notes: Inhibition of recombinant full length human CYP51 expressed in Escherichia coli incubated for 1 min using [3H] lanosterol as substrate by HPLC analysis

Completed entries (count: 10):
1. O=C(N[C@@H](Cn1ccnc1)c1ccc(-c2ccc(F)cc2)cc1F)c1ccc(-c2nnc(-c3ccccc3)o2)cc1 ... < 0.5 µM
2. CS(=O)(=O)c1cc(-c2ccccn2)cc(-c2nnc(-c3ccc(C(=O)N[C@@H](Cn4ccnc4)c4ccc(-c5ccc(F)cc5)cc4Cl)cc3)o2)c1 ... < 0.5 µM
3. O=C(N[C@@H](Cn1ccnc1)c1ccc(-c2ccc(F)cc2)cc1-c1ccco1)c1ccc(-c2nnc(-c3ccccc3)o2)cc1 ... 5.2 µM
4. O=C(N[C@@H](Cn1ccnc1)c1ccc(-c2ccc(F)cc2)cc1Cl)c1ccc(-c2nnc(-c3ccccc3)o2)cc1 ... < 0.5 µM
5. CS(=O)(=O)c1cc(Br)cc(-c2nnc(-c3ccc(C(=O)N[C@@H](Cn4ccnc4)c4ccc(-c5ccc(F)cc5)cc4Cl)cc3)o2)c1 ... < 0.5 µM
6. O=C(N[C@@H](Cn1ccnc1)c1ccc(-c2ccc(F)cc2)cc1Cl)c1ccc(-c2nnc(-c3cc(F)cc(-c4ccccn4)c3)o2)cc1 ... < 0.5 µM
7. O=C(N[C@@H](Cn1ccnc1)c1ccc(-c2ccc(F)cc2)cc1-c1ccccc1)c1ccc(-c2nnc(-c3ccccc3)o2)cc1 ... 1.5 µM
8. O=C(N[C@@H](Cn1ccnc1)c1ccc(-c2ccc(F)cc2)cc1Cl)c1ccc(-c2nnc(-c3cc(Br)cc4ccccc34)o2)cc1 ... < 0.5 µM
9. COc1ccc(-c2cc(-c3ccc(F)cc3)ccc2[C@H](Cn2ccnc2)NC(=O)c2ccc(-c3nnc(-c4ccccc4)o3)cc2)cc1 ... 12 µM
10. O=C(N[C@@H](Cn1ccnc1)c1ccc(-c2ccc(F)cc2)c2ccccc12)c1ccc(-c2nnc(-c3ccccc3)o2)cc1 ... 3 µM

Next:
The compound O=C(N[C@@H](Cn1ccnc1)c1ccc(-c2ccc(F)cc2)cc1Cl)c1ccc(-c2nnc(-c3cc(F)cc(-c4ncncc4F)c3)o2)cc1 showed IC50 equal to < 0.5 µM
